Where these numbers come from: patent US20230265116A1

# assaySystem: EGFR L858R/T790M/C797S (BaF3-LTC cells) (Homo sapiens, UniProt P00533, C797S/L858R/T790M)
# Construct: expressed in transfected cells; host or cells: BaF3
# Sequence (P00533 25-1210 T790M/C797S/L858R): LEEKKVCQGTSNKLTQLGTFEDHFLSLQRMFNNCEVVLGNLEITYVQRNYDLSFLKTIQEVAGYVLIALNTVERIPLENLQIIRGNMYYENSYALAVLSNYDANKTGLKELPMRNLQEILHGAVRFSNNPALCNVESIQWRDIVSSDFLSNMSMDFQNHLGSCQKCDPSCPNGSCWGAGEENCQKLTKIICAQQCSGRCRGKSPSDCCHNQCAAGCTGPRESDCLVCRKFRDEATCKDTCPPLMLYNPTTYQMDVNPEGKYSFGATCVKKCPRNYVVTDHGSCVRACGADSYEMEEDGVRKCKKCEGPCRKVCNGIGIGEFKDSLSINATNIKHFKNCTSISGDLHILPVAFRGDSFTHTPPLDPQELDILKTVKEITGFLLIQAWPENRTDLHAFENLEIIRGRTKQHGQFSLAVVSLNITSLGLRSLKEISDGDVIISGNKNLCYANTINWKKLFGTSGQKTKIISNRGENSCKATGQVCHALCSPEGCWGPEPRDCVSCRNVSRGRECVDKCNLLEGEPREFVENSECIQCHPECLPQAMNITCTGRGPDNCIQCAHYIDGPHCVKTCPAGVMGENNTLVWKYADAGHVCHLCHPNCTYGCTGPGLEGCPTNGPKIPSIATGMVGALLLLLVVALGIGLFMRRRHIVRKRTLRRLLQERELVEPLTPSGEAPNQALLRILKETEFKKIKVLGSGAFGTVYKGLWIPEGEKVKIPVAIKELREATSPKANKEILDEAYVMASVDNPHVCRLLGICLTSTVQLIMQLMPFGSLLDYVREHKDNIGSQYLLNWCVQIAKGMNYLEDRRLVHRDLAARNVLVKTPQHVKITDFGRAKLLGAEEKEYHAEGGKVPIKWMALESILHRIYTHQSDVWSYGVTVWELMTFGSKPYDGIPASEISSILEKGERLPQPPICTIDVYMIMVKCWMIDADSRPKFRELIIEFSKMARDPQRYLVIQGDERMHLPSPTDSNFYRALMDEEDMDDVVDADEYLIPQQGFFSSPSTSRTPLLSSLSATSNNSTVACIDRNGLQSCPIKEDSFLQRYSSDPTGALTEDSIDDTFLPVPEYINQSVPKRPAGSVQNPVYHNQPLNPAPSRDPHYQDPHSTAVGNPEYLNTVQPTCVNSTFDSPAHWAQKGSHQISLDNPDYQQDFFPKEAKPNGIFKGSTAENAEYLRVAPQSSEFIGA
# experimentDescription: EGFR degradation HTRF assay, BaF3-LTC cells
# Type: cell-based
# settings: BaF3-LTC cells; EGFR degradation, IC50 (DC50) from curve fit; read-out: DC50(nM) BaF3-LTC
measuredMetric: DC50 (nM)

# example entries with known answers
# molecule, DC50 [nM]
rows = [
    ("CCOc1cc(N2CCC(N3CCN(CCc4cccc5c4C(C)(C)C(=O)N5C4CCC(=O)NC4=O)CC3)CC2)c(CC)cc1Nc1ncc(Br)c(Nc2ccc3c(=O)n(CC)ncc3c2P(C)(C)=O)n1 (stereo not shown)", 3.34),
    ("CCOc1cc(N2CCC(N3CCN(CCc4ccc5c(oc(=O)n5C5CCC(=O)NC5=O)c4F)CC3)CC2)c(CC)cc1Nc1ncc(Br)c(Nc2ccc3nc(CC)ccc3c2P(C)(C)=O)n1 (stereo not shown)", 7.36),
    ("CCOc1cc(N2CCC(N3CCN(CCCOc4cc(F)c([C@H]5CCC(=O)NC5=O)c(F)c4)CC3)CC2)c(CC)cc1Nc1ncc(Br)c(Nc2ccc3c(=O)n(CC)ncc3c2P(C)(C)=O)n1", 18),
    ("CCOc1cc(N2CCC(N3CCN(CCc4cc(F)c([C@H]5CCC(=O)NC5=O)c(F)c4)CC3)CC2)c(CC)cc1Nc1ncc(Br)c(Nc2ccc3nc(CC)ncc3c2P(C)(C)=O)n1", 16.4),
    ("CCc1cc(Nc2ncc(Br)c(Nc3ccc4c(=O)n(C5CC5)ncc4c3P(C)(C)=O)n2)c(OC)cc1N1CCC(N2CCN(CCC3CCN(c4cc(F)c([C@H]5CCC(=O)NC5=O)c(F)c4)CC3)CC2)CC1", 12.2),
    ("CCOc1cc(N2CCC(N3CCN(CCc4cccc5c4n(CC)c(=O)n5C4CCC(=O)NC4=O)CC3)CC2)c(CC)cc1Nc1ncc(Br)c(Nc2cc(F)c3nc(CC)ccc3c2P(C)(C)=O)n1 (stereo not shown)", 3.86),
    ("CCc1cc(Nc2ncc(Br)c(Nc3ccc4nc(C)ccc4c3P(C)(C)=O)n2)c(OC)cc1N1CCC(N2CCN(C[C@H]3CCN(c4ccc5c(c4)oc(=O)n5C4CCC(=O)NC4=O)C3)CC2)CC1 (stereo partly shown)", 2.6),
    ("CCOc1cc(N2CCC(N3CCN(CCCc4cc(C)cc5c4oc(=O)n5C4CCC(=O)NC4=O)CC3)CC2)c(CC)cc1Nc1ncc(Br)c(Nc2ccc3nc(CC)ccc3c2P(C)(C)=O)n1 (stereo not shown)", 11),
]

a = CCOc1cc(N2CCC(N3CCN(CCCc4cc(F)cc5c4oc(=O)n5C4CCC(=O)NC4=O)CC3)CC2)c(CC)cc1Nc1ncc(Br)c(Nc2ccc3nc(CC)ccc3c2P(C)(C)=O)n1 (stereo not shown)
b = CCOc1cc(N2CCC(N3CCN(CCc4cc(F)c([C@H]5CCC(=O)NC5=O)c(F)c4)CC3)CC2)c(CC)cc1Nc1ncc(Br)c(Nc2ccc3nc(CC)c(F)cc3c2P(C)(C)=O)n1
// query So which one has the bigger DC50 here, a or b ? Returns: label corresponding to the selected item.
// result b
(b: 18.4 nM, a: 2.3 nM)
